system: glycogen synthase kinase-3 (GSK3A per assay name; protocol says GSK3B); test: GSK3 binders on small-molecule microarrays, primary screen, biochemical, small-molecule microarray, 635 nm fluorescence, GSK3A (AID 1103); settings: small-molecule microarray binding, fluorescence 635 nm; higher = more signal; note: the record names both GSK3A and GSK3B
VALUE KIND: composite z-score

# COMPOUND, VALUE KIND, RESULT NUMBER
measured = [
    ("[N-]=[N+]=NCc1ccccc1C[C@]1(C(=O)NCc2ccccc2)N=C(c2ccc(OCCCO)cc2)O[C@H]1c1ccccc1N=[N+]=[N-]", "composite z-score", 1.12),
    ("CCOc1ccc(N2C(=O)/C(=C/C=C/c3ccccc3OC)S(=O)(=O)C2c2cccc([N+](=O)[O-])c2)cc1 (stereo not drawn)", "composite z-score", 0.342),
    ("CCOC(=O)CCN1C(=O)[C@H]2[C@H]3[C@H](O)[C@H](O)CC(=NOCc4ccccc4)[C@@H]3CC[C@H]2C1=O", "composite z-score", 0.597),
    ("CCCC[C@@H]1C[C@H]1[C@@H](NS(=O)(=O)c1cccc2cccnc12)c1ccc(-c2ccccc2)cc1", "composite z-score", -0.356),
    ("COc1ccc(COC(=O)NN=C2C[C@@H](O)[C@@H](O)[C@@H]3[C@@H]4C(=O)N(Cc5ccc6c(c5)OCO6)C(=O)[C@@H]4CC[C@@H]23)cc1", "composite z-score", -0.52),
    ("COc1cccc([C@H]2Oc3ccc(OC)cc3C(=NO[C@H](C)c3cn([C@@H]4COC[C@H]4O)nn3)[C@@H]2O)c1", "composite z-score", -1.14),
    ("CCOC(=O)CCN1C(=O)[C@H]2[C@H]3[C@H](O)[C@H](O)CC(=NOC[C@@H](O)COCc4ccco4)[C@H]3CC[C@H]2C1=O", "composite z-score", 0.596),
    ("CC[C@@H](c1ccccc1)n1c(=O)n2n(c1=O)[C@H]1[C@H](O)[C@@H]3O[C@@H]3C(=NOCC=C(C)CCC=C(C)C)[C@H]1CC2", "composite z-score", 0.412),
]

---

test system: Chordin-like protein 2 (CHRDL2); assay: CHRDL2 small-molecule binders, primary screen, biochemical, small-molecule microarray, 635 nm fluorescence (AID 1126); details: small-molecule microarray binding, fluorescence 635 nm; higher = more signal;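 note: printed compound slides probed with Chrdl2 protein at 4 µg/mL for 1 h at 4 C; score merges 667 nm emission intensity with signal to noise over three replicate slides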

# MOLECULE, composite z-score
measured = [
    ("CCOC(=O)[C@H](Cc1ccccc1)NC(=O)CCC1CC(OC(=O)NCc2ccc3c(c2)OCO3)CC2(CCCC(COC(=O)NCc3cccc(C(F)(F)F)c3)O2)O1 (some centres not stated)", 0.393),
    ("COc1ccccc1CN1C(=O)c2ccccc2[C@@H](C(=O)NCC(F)(F)F)[C@@H]1c1ccc(CO)cc1", -0.365),
    ("CC(C)(C)OC(=O)CC[C@]1(C(N)=O)COC(c2ccc(OCCCO)cc2)=N1", 0.0555),
    ("O=C1O[C@@H](c2ccccc2)[C@@H](c2ccccc2)N2[C@@H](c3ccccc3OCCO)[C@]3(C(=O)Nc4ccc(C#CCCO)cc43)[C@@H](C(=O)O)[C@H]12", 0.553),
    ("CC(C)CON=C1C[C@@H](O)[C@@H](O)[C@@H]2[C@@H]3C(=O)N(C[C@@H]4CCCO4)C(=O)[C@@H]3CC[C@H]12", -0.0163),
    ("COC(=O)[C@@]1(Cc2ccc(F)cc2)[C@@H]2C(=CC(=O)[C@H]2CC(=O)C(=O)N(C)C)CN1C(=O)c1ccccc1", 0.13),
    ("O[C@@H](Cc1ccccc1)[C@H]1C2C=CCCC(c3ccccc3)=C2CN1Cc1cccc(Cl)c1 (some centres not stated)", 0.441),
]
